// data source = patent US20090149485A1

# Assay target: GSK3-alpha (Homo sapiens)
# Construct: purchased Upstate 14-492
# Sequence (P49840 whole entry): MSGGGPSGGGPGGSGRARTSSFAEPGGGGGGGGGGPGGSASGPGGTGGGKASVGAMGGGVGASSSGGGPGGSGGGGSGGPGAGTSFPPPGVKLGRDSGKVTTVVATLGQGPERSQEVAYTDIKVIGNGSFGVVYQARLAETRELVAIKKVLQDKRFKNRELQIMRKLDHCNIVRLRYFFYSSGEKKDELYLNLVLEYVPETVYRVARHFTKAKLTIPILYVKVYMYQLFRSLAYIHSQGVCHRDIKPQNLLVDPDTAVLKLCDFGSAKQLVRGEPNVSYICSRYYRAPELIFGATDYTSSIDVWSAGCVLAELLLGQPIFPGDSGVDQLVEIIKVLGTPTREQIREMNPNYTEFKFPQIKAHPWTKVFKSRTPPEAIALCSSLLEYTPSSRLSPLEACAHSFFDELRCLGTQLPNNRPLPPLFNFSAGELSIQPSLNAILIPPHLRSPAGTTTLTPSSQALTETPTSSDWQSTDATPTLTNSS
# Assay method text: GSK3-alpha Kinase-Glo Plus luminescent kinase assay
# Format: biochemical
# Conditions: 10 μM compound, n=3, read-out: % Inhibition at 10 μM α
List of inhibition at 10 µM values.
Experimental readout: inhibition at 10 µM

# Compound, Assay target, Data value
data = [
    ("N#Cc1cccc(Cn2c(=O)[nH]cc(-c3cccs3)c2=O)c1 [Compound 8]", "GSK3-alpha (Homo sapiens)", "54%"),
    ("O=c1[nH]cc(-c2cccs2)c(=O)n1Cc1ccc([N+](=O)[O-])cc1 [Compound 17]", "GSK3-alpha (Homo sapiens)", "8%"),
    ("N#Cc1ccc(Cn2cc(-c3cccs3)c(=O)[nH]c2=O)cc1 [Compound 19]", "GSK3-alpha (Homo sapiens)", "15%"),
    ("O=c1[nH]cc(-c2cccs2)c(=O)n1Cc1ccc(F)cc1 [Compound 10]", "GSK3-alpha (Homo sapiens)", "6%"),
    ("N#Cc1cccc(Cn2c(=O)[nH]cc(-c3ccco3)c2=O)c1 [Compound 9]", "GSK3-alpha (Homo sapiens)", "22%"),
    ("O=c1[nH]cc(-c2ccco2)c(=O)n1Cc1cc(F)cc(F)c1 [Compound 20]", "GSK3-alpha (Homo sapiens)", "11%"),
    ("N#Cc1ccc(Cn2c(=O)[nH]cc(-c3ccco3)c2=O)cc1 [Compound 15]", "GSK3-alpha (Homo sapiens)", "14%"),
    ("N#Cc1cccc(Cn2cc(-c3ccco3)c(=O)[nH]c2=O)c1 [Compound 18]", "GSK3-alpha (Homo sapiens)", "10%"),
    ("O=c1[nH]cc(-c2ccco2)c(=O)n1Cc1ccc(F)cc1 [Compound 11]", "GSK3-alpha (Homo sapiens)", "16%"),
]

###

# Assay target: GSK3-beta (Homo sapiens)
# Construct: purchased Upstate 14-306
# Sequence (P49841 whole entry): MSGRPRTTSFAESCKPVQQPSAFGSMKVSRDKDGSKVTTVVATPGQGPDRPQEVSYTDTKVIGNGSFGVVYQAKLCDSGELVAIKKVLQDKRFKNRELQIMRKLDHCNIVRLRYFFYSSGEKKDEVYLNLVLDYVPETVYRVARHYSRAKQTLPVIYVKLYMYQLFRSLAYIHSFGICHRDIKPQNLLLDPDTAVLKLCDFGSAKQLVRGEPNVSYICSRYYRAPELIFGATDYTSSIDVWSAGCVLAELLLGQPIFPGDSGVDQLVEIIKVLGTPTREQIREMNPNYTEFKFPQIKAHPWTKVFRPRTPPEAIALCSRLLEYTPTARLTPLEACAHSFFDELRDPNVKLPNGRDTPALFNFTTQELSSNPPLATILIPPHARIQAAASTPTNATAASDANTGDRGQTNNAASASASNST
# Assay method text: GSK3-beta Kinase-Glo Plus luminescent kinase assay
# Assay type: biochemical
# Conditions: 10 μM compound, n=4, read-out: % Inhibition at 10 μM β
Label criterion met when inhibition at 10 µM is at or above 60%; otherwise label criterion not met.

# Smiles notation, Class assignment
records = [
    ("O=c1[nH]c(=O)n(Cc2ccccc2)cc1-c1cccs1", "criterion not met"),
    ("CCOC(=O)Cn1cc(-c2cccs2)c(=O)[nH]c1=O", "criterion met"),
    ("O=c1[nH]cc(-c2ccco2)c(=O)n1Cc1ccc(F)cc1", "criterion not met"),
    ("O=c1[nH]cc(-c2ccco2)c(=O)n1Cc1cc(F)cc(F)c1", "criterion not met"),
    ("CCOC(=O)Cn1cc(-c2ccco2)c(=O)[nH]c1=O", "criterion not met"),
    ("CCOC(=O)Cn1c(=O)[nH]cc(-c2ccco2)c1=O", "criterion not met"),
    ("O=c1[nH]cc(-c2ccco2)c(=O)n1Cc1ccccc1", "criterion met"),
    ("N#Cc1ccc(Cn2cc(-c3cccs3)c(=O)[nH]c2=O)cc1", "criterion not met"),
    ("N#Cc1cccc(Cn2cc(-c3ccco3)c(=O)[nH]c2=O)c1", "criterion not met"),
    ("O=c1[nH]cc(-c2ccco2)c(=O)n1Cc1ccc([N+](=O)[O-])cc1", "criterion met"),
    ("N#Cc1ccc(Cn2cc(-c3ccco3)c(=O)[nH]c2=O)cc1", "criterion not met"),
    ("O=c1[nH]c(=O)n(Cc2ccc(F)cc2)cc1-c1ccco1", "criterion not met"),
    ("N#Cc1cccc(Cn2c(=O)[nH]cc(-c3cccs3)c2=O)c1", "criterion met"),
    ("N#Cc1cccc(Cn2cc(-c3cccs3)c(=O)[nH]c2=O)c1", "criterion not met"),
    ("N#Cc1cccc(Cn2c(=O)[nH]cc(-c3ccco3)c2=O)c1", "criterion met"),
    ("O=c1[nH]cc(-c2cccs2)c(=O)n1Cc1ccc(F)cc1", "criterion not met"),
    ("O=c1[nH]c(=O)n(Cc2ccc(F)cc2)cc1-c1cccs1", "criterion met"),
    ("O=c1[nH]cc(-c2cccs2)c(=O)n1Cc1ccc([N+](=O)[O-])cc1", "criterion not met"),
    ("N#Cc1ccc(Cn2c(=O)[nH]cc(-c3ccco3)c2=O)cc1", "criterion not met"),
]
